- test: Particle size distribution and specific surface area (LS 200, Small Volume Module, Fraunhofer optical model)
- Assay type: physicochemical
- condition: Particle Diameter (Lower) 10.78 μm
endpoint: Cum. < Volume %

{"columns": ["compound", "Cum. < Volume %"],
 "data": [
  ["O=C(O)CCNC(=O)c1ccc(/N=N/c2ccc(O)c(C(=O)O)c2)cc1 [Feed Powder Sample C (#53.$02)]", "70.9%"],
  ["O=C(O)CCNC(=O)c1ccc(/N=N/c2ccc(O)c(C(=O)O)c2)cc1 [Feed Powder Sample A (#35.$01)]", "63.9%"]
]}

Shift focus to the following entry.
Sample O=C([O-])CCNC(=O)c1ccc(/N=N/c2ccc(O)c(C(=O)[O-])c2)cc1.[Na+].[Na+] [Sample 2] — what was its Cum. < Volume %?
83.4%

The reported measurements were obtained from patent US20090252788A1.
